system: Plasmodium falciparum; experiment: Plasmodium falciparum sporozoite viability assay; type: functional, organism-based; also: in the data most compounds retested in dose-response had high values
Hit rate of the full screen: of about 34,000 compounds, about 290 (0.85%) showed an effect of 50% or more. Many of the other results were omitted from the sample, so strong results are more common in it than they were.
observable: Percent Effect (%)

>>> print(df.to_string())
                                    compound      observable  quantitative_result
 0  COCCN1CCC2(CCN(C(=O)c3ccc(F)cc3)CC2)C1=O  Percent Effect                6.318
 1  Cc1ccc(CNC(=O)NC(C)Cn2cccn2)cn1 (configuration not stated)  Percent Effect                 11.6
 2       Cc1ncsc1C(=O)NCc1ccnc(OCC(F)(F)F)c1  Percent Effect                6.389
 3   Cc1ccc(-c2nc(CN3CCc4cnc(C)nc4C3)no2)cc1  Percent Effect               16.875
 4  COc1ccccc1CN1CCC2(CCC(C(=O)N(C)C)O2)CC1 (configuration not stated)  Percent Effect                 9.72
 5         Cc1ccc(CC(=O)N2CCN(c3nccs3)CC2)s1  Percent Effect                2.447
 6    COc1cccc(CSCC2=Nc3ccccc3S(=O)(=O)N2)c1  Percent Effect               -15.51
 7  CN(C)c1ccc(C(=O)N2CCCN(Cc3cnn(C)c3)CC2)nn1  Percent Effect               -1.596
 8  Cc1cnn(CC2CN(CC(=O)Nc3ccnn3C(C)C)CCO2)c1 (configuration not stated)  Percent Effect                2.692
 9       CN1CCN(c2cc(CNC(=O)c3ccsc3)ccn2)CC1  Percent Effect                4.114
10  COc1ccccc1OCCC(=O)N1CCCCC1c1nccs1 (configuration not stated)  Percent Effect               -5.924
11            CN(C)C(=O)c1cccnc1SCc1ccccc1Cl  Percent Effect               -19.98

====

# Percent Effect per entry
test system: Plasmodium falciparum; assay: Plasmodium falciparum sporozoite viability assay; type: functional, organism-based; also: in the data most compounds retested in dose-response had high values
In all, about 34,000 compounds went through this assay and about 290 (0.85%) showed an effect of 50% or more. The entries come from a sample that favours strong results as a whole.
observable: Percent Effect (%)

>>> print(df.to_string())
                                    molecule      observable  quantitative_result
 0  COCc1cnc2n1CCN(C(=O)c1ocnc1C)C2C (stereo not drawn)  Percent Effect                4.866
 1      COc1ccccc1C1(C(=O)NCCN2CCCCC2)CCOCC1  Percent Effect                7.717
 2  Cc1cc(-c2cnc(N3CCNC(=O)C3)nc2-c2sccc2C)on1  Percent Effect                7.472
 3  Cc1nc(C)n(CC2CCCN(Cc3ccccc3C#N)C2)n1 (stereo not drawn)  Percent Effect                4.939
 4  O=S1(=O)CCC(N(Cc2nc(-c3ccccn3)no2)Cc2cccs2)C1 (stereo not drawn)  Percent Effect                22.13
 5  COc1c(CNC(c2ccccc2)c2nccn2C)c(C)nn1C (stereo not drawn)  Percent Effect                11.35
 6  Cc1cc2cc(C(=O)N[C@@H]3CC[C@@H](N4CCNC(=O)C4)[C@@H]3O)ccc2o1  Percent Effect               -1.506
 7  Cn1ncc2c1CCCC2NCc1cnc(-c2ccccc2)nc1 (stereo not drawn)  Percent Effect                18.56
 8  CCN1CC[C@@]2(C(=O)N3CCOCC3)CCN(C(=O)C(C)C)CC[C@@H]12.O=C(O)C(F)(F)F  Percent Effect                20.75
 9   Cn1cnc(-c2cc(C(=O)N3CCOCC3)c3ccccn23)c1  Percent Effect               -1.371
10  Cc1cc(Cc2cccc(C(F)(F)F)c2)cc(C2CCCNC2)n1 (stereo not drawn)  Percent Effect                4.537
11  c1ccc(-c2ccc(CN3CCOC(Cn4cncn4)C3)cc2)cc1 (stereo not drawn)  Percent Effect               -3.122
12  CCN(CC1CCOC1)C(=O)c1ccccc1S(=O)(=O)CC (stereo not drawn)  Percent Effect                6.872
13  Cc1cnn(CC2CN(Cc3nc4ccccc4o3)CCO2)c1 (stereo not drawn)  Percent Effect              -0.5102
14     Cn1cnc(-c2nc(C(=O)NC3CC3)c3ccccn23)c1  Percent Effect                10.82
15  COC1CN(C(=O)CC(C)C)CCC(=O)N(C)c2ccccc21 (stereo not drawn)  Percent Effect               -36.78
16  COc1ccc(S(=O)(=O)N2CCN(C)c3ncccc3C2)cc1.O=C(O)C(F)(F)F  Percent Effect                6.245
17  CC(C)N1CCO[C@@H]2CN(C(=O)NCc3ccccc3)CC[C@@H]2C1.O=C(O)C(F)(F)F  Percent Effect                8.185
18  CC(C)n1cnc(-c2nc(C(=O)NC3CC3)c3ccccn23)c1  Percent Effect                6.582
19  O=C(O)[C@@H]1CN(C(=O)CC2CCCC2)C[C@H]1c1ccc(F)cc1  Percent Effect                4.737
20  CCOc1ccc(C(=O)N2CCCC(n3ccnc3C)C2)cc1OC (stereo not drawn)  Percent Effect               0.3069
21  c1ccc2sc(N3CCOC(Cn4cccn4)C3)nc2c1 (stereo not drawn)  Percent Effect                 9.76
22  Cl.Cn1ncc2c1CCCC2NCc1cccc(F)c1 (stereo not drawn)  Percent Effect               -6.761
